A collection of compounds and their measured GI50
- Tested on: SNB-75
- ASSAY_NOTES: Antiproliferative activity against human SNB75 cells
- Format: functional
MEASUREMENT_KIND: GI50 (µM)

INSERT INTO measurements (smiles_representation, inequality_operator, test_result) VALUES
  ('COc1ccc(-n2cc(-c3ccc(OC)c(OC)c3)[nH]c2=S)cc1Cl', '=', 5.01),
  ('COc1ccc(-n2cc(-c3ccc(Cl)cc3)[nH]c2=S)cc1Cl', '=', 20),
  ('COc1ccc(-c2cn(-c3ccc(OC)c(OC)c3)c(=O)[nH]2)cc1', '=', 25.1),
  ('COc1cc(-n2cc(-c3ccccc3)[nH]c2=O)cc(OC)c1OC', '=', 12.6),
  ('O=c1[nH]c(-c2ccc(Cl)c(Cl)c2)cn1-c1ccc(Cl)cc1', '=', 20),
  ('COc1cc(-c2cn(-c3ccc(Cl)cc3)c(=O)[nH]2)cc(OC)c1OC', '>', 100),
  ('COc1ccc(/C=C\c2cc(OC)c(OC)c(OC)c2)cc1O', '=', 0.794);

---

- System: HL-60
- ASSAY_NOTES: Antiproliferative activity against human HL60 cells
- Type: functional
A collection of compounds and their measured GI50
MEASUREMENT_KIND: GI50

INSERT INTO measurements (smiles_representation, measurement_kind, test_result) VALUES
  ('COc1ccc(-c2cn(-c3ccc(Cl)cc3)c(=S)[nH]2)cc1OC', 'GI50', '3.16 µM'),
  ('COc1cc(-n2cc(-c3ccccc3)[nH]c2=O)cc(OC)c1OC', 'GI50', '63.1 µM'),
  ('COc1ccc(-c2cn(-c3ccc(OC)c(OC)c3)c(=O)[nH]2)cc1', 'GI50', '39.8 µM'),
  ('COc1ccc(-n2cc(-c3cc(OC)c(OC)c(OC)c3)[nH]c2=S)cc1Cl', 'GI50', '> 100 µM'),
  ('COc1ccc(-n2cc(-c3ccc(OC)c(OC)c3)[nH]c2=S)cc1Cl', 'GI50', '> 100 µM'),
  ('COc1ccc(-n2cc(-c3cc(OC)c(OC)c(OC)c3)[nH]c2=S)cc1OC', 'GI50', '> 100 µM'),
  ('COc1cc(-n2cc(-c3ccc(Cl)cc3)[nH]c2=O)cc(OC)c1OC', 'GI50', '> 100 µM'),
  ('O=c1[nH]c(-c2ccc(Cl)c(Cl)c2)cn1-c1ccc(Cl)cc1', 'GI50', '31.6 µM'),
  ('COc1cc(-c2cn(-c3ccc(Cl)cc3)c(=O)[nH]2)cc(OC)c1OC', 'GI50', '0.398 µM'),
  ('COc1ccc(-n2cc(-c3cc(OC)c(OC)c(OC)c3)[nH]c2=O)cc1Cl', 'GI50', '> 100 µM'),
  ('COc1ccc(-n2cc(-c3ccc(Cl)cc3)[nH]c2=S)cc1Cl', 'GI50', '> 100 µM');

---

- Tested on: SNB-75
- ASSAY_NOTES: Antiproliferative activity against human SNB75 cells
- Assay type: functional
A collection of molecules and their measured log10 of GI50
MEASUREMENT_KIND: log10 of GI50 (log10 of the value in µM)

INSERT INTO measurements (smiles_representation, test_result) VALUES
  ('COc1ccc(-c2cn(-c3ccc(Cl)cc3)c(=S)[nH]2)cc1OC', 1.20),
  ('COc1ccc(-n2cc(-c3cc(OC)c(OC)c(OC)c3)[nH]c2=S)cc1Cl', 1.30),
  ('COc1cc(-n2cc(-c3ccc(Cl)cc3)[nH]c2=O)cc(OC)c1OC', 1.40),
  ('COc1ccc(-n2cc(-c3cc(OC)c(OC)c(OC)c3)[nH]c2=O)cc1Cl', 0.80),
  ('COc1ccc(-n2cc(-c3cc(OC)c(OC)c(OC)c3)[nH]c2=S)cc1OC', 1.80);

---

- System: SF-539
- ASSAY_NOTES: Antiproliferative activity against human SF539 cells
- Type: functional
A collection of compounds and their measured GI50
MEASUREMENT_KIND: GI50 (µM)

INSERT INTO measurements (smiles_representation, experimental_system, inequality_operator, test_result) VALUES
  ('COc1ccc(-n2cc(-c3cc(OC)c(OC)c(OC)c3)[nH]c2=S)cc1OC', 'SF-539', '>', 100),
  ('COc1cc(-n2cc(-c3ccc(Cl)cc3)[nH]c2=O)cc(OC)c1OC', 'SF-539', '=', 25.1),
  ('COc1ccc(-c2cn(-c3ccc(Cl)cc3)c(=S)[nH]2)cc1OC', 'SF-539', '=', 31.6),
  ('O=c1[nH]c(-c2ccc(Cl)c(Cl)c2)cn1-c1ccc(Cl)cc1', 'SF-539', '=', 20),
  ('COc1ccc(-n2cc(-c3cc(OC)c(OC)c(OC)c3)[nH]c2=O)cc1Cl', 'SF-539', '=', 31.6),
  ('COc1ccc(/C=C\c2cc(OC)c(OC)c(OC)c2)cc1O', 'SF-539', '=', 0.0398),
  ('COc1ccc(-n2cc(-c3ccc(OC)c(OC)c3)[nH]c2=S)cc1Cl', 'SF-539', '=', 39.8),
  ('COc1cc(-n2cc(-c3ccccc3)[nH]c2=O)cc(OC)c1OC', 'SF-539', '=', 20),
  ('COc1ccc(-n2cc(-c3ccc(Cl)cc3)[nH]c2=S)cc1Cl', 'SF-539', '=', 20),
  ('COc1cc(-c2cn(-c3ccc(Cl)cc3)c(=O)[nH]2)cc(OC)c1OC', 'SF-539', '>', 100),
  ('COc1ccc(-n2cc(-c3cc(OC)c(OC)c(OC)c3)[nH]c2=S)cc1Cl', 'SF-539', '=', 20),
  ('COc1ccc(-c2cn(-c3ccc(OC)c(OC)c3)c(=O)[nH]2)cc1', 'SF-539', '>', 100);

---

A collection of compounds and their measured GI50
- Test system: CCRF-CEM
- ASSAY_NOTES: Antiproliferative activity against human CCRF-CEM cells
- Assay type: functional
MEASUREMENT_KIND: GI50

INSERT INTO assay_data (smiles_representation, experimental_system, measurement_kind, test_result) VALUES
  ('O=c1[nH]c(-c2ccc(Cl)c(Cl)c2)cn1-c1ccc(Cl)cc1', 'CCRF-CEM', 'GI50', '39.8 µM'),
  ('COc1ccc(-c2cn(-c3ccc(OC)c(OC)c3)c(=O)[nH]2)cc1', 'CCRF-CEM', 'GI50', '> 100 µM'),
  ('COc1ccc(-c2cn(-c3ccc(Cl)cc3)c(=S)[nH]2)cc1OC', 'CCRF-CEM', 'GI50', '> 100 µM'),
  ('COc1cc(-c2cn(-c3ccc(Cl)cc3)c(=O)[nH]2)cc(OC)c1OC', 'CCRF-CEM', 'GI50', '> 100 µM'),
  ('COc1ccc(-n2cc(-c3ccc(Cl)cc3)[nH]c2=S)cc1Cl', 'CCRF-CEM', 'GI50', '63.1 µM'),
  ('COc1ccc(/C=C\c2cc(OC)c(OC)c(OC)c2)cc1O', 'CCRF-CEM', 'GI50', '0.1 µM'),
  ('COc1ccc(-n2cc(-c3ccc(OC)c(OC)c3)[nH]c2=S)cc1Cl', 'CCRF-CEM', 'GI50', '> 100 µM'),
  ('COc1cc(-n2cc(-c3ccc(Cl)cc3)[nH]c2=O)cc(OC)c1OC', 'CCRF-CEM', 'GI50', '< 0.01 µM'),
  ('COc1ccc(-n2cc(-c3cc(OC)c(OC)c(OC)c3)[nH]c2=S)cc1OC', 'CCRF-CEM', 'GI50', '> 100 µM'),
  ('COc1ccc(-n2cc(-c3cc(OC)c(OC)c(OC)c3)[nH]c2=O)cc1Cl', 'CCRF-CEM', 'GI50', '> 100 µM'),
  ('COc1ccc(-n2cc(-c3cc(OC)c(OC)c(OC)c3)[nH]c2=S)cc1Cl', 'CCRF-CEM', 'GI50', '0.631 µM');

---

- Tested on: HCT-116
- ASSAY_NOTES: Antiproliferative activity against human HCT116 cells
- Format: functional
A collection of compounds and their measured log10 of GI50
MEASUREMENT_KIND: log10 of GI50 (log10 of the value in µM)

INSERT INTO results (smiles_representation, measurement_kind, test_result) VALUES
  ('COc1ccc(-n2cc(-c3cc(OC)c(OC)c(OC)c3)[nH]c2=S)cc1Cl', 'log10 of GI50', 1.40),
  ('O=c1[nH]c(-c2ccc(Cl)c(Cl)c2)cn1-c1ccc(Cl)cc1', 'log10 of GI50', 1.20),
  ('COc1ccc(-n2cc(-c3ccc(Cl)cc3)[nH]c2=S)cc1Cl', 'log10 of GI50', 1.70),
  ('COc1cc(-n2cc(-c3ccccc3)[nH]c2=O)cc(OC)c1OC', 'log10 of GI50', 1.80),
  ('COc1cc(-n2cc(-c3ccc(Cl)cc3)[nH]c2=O)cc(OC)c1OC', 'log10 of GI50', 1.50),
  ('COc1ccc(/C=C\c2cc(OC)c(OC)c(OC)c2)cc1O', 'log10 of GI50', -1.50),
  ('COc1ccc(-c2cn(-c3ccc(Cl)cc3)c(=S)[nH]2)cc1OC', 'log10 of GI50', 0.60);
